- Assay Overview: Protein binding in mouse plasma assessed as unbound fraction at 1 uM measured after 24 hrs by LC-MS/MS analysis
- Assay type: ADME, cell-free
Measured Property: fraction unbound at 24 h, 1 µM

Example compounds with recorded fraction unbound at 24 h, 1 µM:
{"Molecular String": "CN1CCCc2c1nc(N1CCC3(CC1)C(=O)N(CCO)c1cc(F)cc(F)c13)[nH]c2=O", "fraction unbound at 24 h, 1 µM": 0.083}
{"Molecular String": "CN1CCN(c2cc(F)c3c(c2)N(C)C(=O)C32CCN(c3nc4c(c(=O)[nH]3)CCCN4C)CC2)CC1", "fraction unbound at 24 h, 1 µM": 0.019}
{"Molecular String": "CN1CCCc2c1nc(N1CCC3(CC1)CN(CCO)c1cc(F)cc(F)c13)[nH]c2=O", "fraction unbound at 24 h, 1 µM": 0.002}

1: C[C@@H]1CN(c2cc(F)c3c(c2)N(C)C(=O)C32CCN(c3nc4c(c(=O)[nH]3)CCCN4C)CC2)C[C@H](C)O1
2: CS(=O)(=O)c1ccc(-c2nnc(/C=C/c3nnc(-c4ccc(C#N)cc4)o3)n2-c2ccccc2Cl)nc1
Between the entries labeled 1 and 2 , whose measured fraction unbound at 24 h, 1 µM is lower? Provide the label of your selected option as the answer.
1
(1: 0.006, 2: 0.035)

Values were extracted from ChEMBL document CHEMBL4342498.
